# maps each entry to its CHI Log D
# MEASUREMENT DESCRIPTION: CHI Log D procedure
# Format: physicochemical
# EXPERIMENTAL CONDITIONS: pH 7.4

# MOLECULE, CHI Log D
measured = [
    ("CC(=O)N1CCC[C@]12CC=CCCCC1(CCCC=CCCCCCC[C@@](C)(C(=O)N[C@@H](Cc3ccccc3)C(=O)N[C@@H](Cc3csc4ccccc34)C(N)=O)NC(=O)[C@H](CC(N)=O)NC(=O)[C@H](Cc3ccccc3)NC(=O)[C@H](C)NC(=O)[C@H](C)NC(=O)[C@H](CCC(=O)O)NC(=O)[C@H](CC(=O)O)NC1=O)NC(=O)[C@H](CC(C)(C)C)NC(=O)[C@H](CC(=O)O)NC2=O (stereo partly shown) [I-712]", 2.778),
    ("CO[C@H](C)[C@@H]1NC(=O)[C@H](CC(=O)O)NC(=O)[C@]2(CC=CCCCC3(CCCC=CCCCCCC[C@@](C)(C(=O)N[C@@H](Cc4ccccc4)C(=O)N[C@@H](Cc4csc5ccccc45)C(=O)N[C@@H](CCC(N)=O)C(N)=O)NC(=O)[C@H](CCC(N)=O)NC(=O)[C@H](Cc4ccccc4)NC(=O)[C@H](C)NC(=O)[C@H](C)NC(=O)[C@H](CCC(=O)O)NC(=O)[C@H](CC(=O)O)NC3=O)NC1=O)CCCN2C(C)=O (stereo partly shown) [I-541]", 2.087),
    ("CC(=O)N1CCC[C@]12CC=CCCCC1(CCCC=CCCCOC(=O)N3CC[C@@](C(=O)N[C@@H](Cc4ccsc4)C(=O)N[C@@H](Cc4csc5ccccc45)C(=O)N[C@H](C(N)=O)[C@@H](C)O)(C3)NC(=O)[C@H](CC(N)=O)NC(=O)[C@H](Cc3ccccc3)NC(=O)[C@H](C)NC(=O)[C@H](C)NC(=O)[C@H](CN(CC(=O)O)CC(F)(F)F)NC(=O)[C@H](CC(=O)O)NC1=O)NC(=O)[C@H](CC(C)(C)C)NC(=O)[C@H](CC(=O)O)NC2=O (stereo partly shown) [I-942]", 1.984),
    ("CC(=O)N1CCC[C@]12CC=CCCCC1(CCCC=CCCCCCC[C@@](C)(C(=O)N[C@@H](Cc3ccccc3)C(=O)N[C@@H](Cc3csc4ccccc34)C(=O)N[C@@H](CCC(N)=O)C(N)=O)NC(=O)[C@H](C)NC(=O)[C@H](Cc3ccccc3C)NC(=O)[C@H](C)NC(=O)[C@H](C)NC(=O)[C@H](CC(=O)O)NC(=O)[C@H](CC(=O)O)NC1=O)NC(=O)[C@H](C)NC(=O)[C@H](CC(=O)O)NC2=O (stereo partly shown) [I-366]", 2.084),
    ("CC(=O)N[C@@H](Cc1ccccc1)C(=O)N[C@@H](CC(=O)O)C(=O)N[C@@H](C)C(=O)N[C@]1(C)CCCCCCC=CCOC(=O)N2CC[C@@](C(=O)N[C@@H](Cc3ccc(C(=O)O)cc3)C(=O)N[C@@H](Cc3c[nH]c4ccccc34)C(=O)N[C@@H](CCC(N)=O)C(N)=O)(C2)NC(=O)[C@H](C(C)C)NC(=O)[C@H](Cc2ccccc2)NC(=O)[C@H](C)NC(=O)[C@H](C)NC(=O)[C@H](CC(=O)O)NC(=O)[C@H](CC(=O)O)NC1=O [I-110]", 0.769),
    ("CC(=O)N1CCC[C@]12CC=CCCCC1(CCCC=CCCCOC(=O)N3CC[C@@](C(=O)N[C@@H](Cc4ccsc4)C(=O)N[C@@H](Cc4csc5ccccc45)C(=O)N[C@@H](CO)C(N)=O)(C3)NC(=O)[C@H](CCO)NC(=O)[C@H](Cc3ccccc3)NC(=O)[C@H](C)NC(=O)[C@H](C)NC(=O)[C@H](CN(CC(=O)O)CC(F)(F)F)NC(=O)[C@H](CC(=O)O)NC1=O)NC(=O)[C@H](CC(C)(C)C)NC(=O)[C@H](CC(=O)O)NC2=O (stereo partly shown) [I-958]", 1.417),
    ("CC(=O)N1CCC[C@]12CC=CCCCC1(CCCC=CCCCCCC[C@@](C)(C(=O)N[C@@H](Cc3ccccc3)C(=O)N[C@@H](Cc3c[nH]c4ccccc34)C(=O)N[C@@H](CCC(N)=O)C(N)=O)NC(=O)[C@H](C)NC(=O)[C@H](Cc3ccccc3)NC(=O)[C@H](C)NC(=O)[C@H](C)NC(=O)[C@H](CC(=O)O)NC(=O)[C@H](CC(=O)O)NC1=O)NC(=O)[C@H](C)NC(=O)[C@H](CC(=O)O)NC2=O (stereo partly shown) [I-287]", 1.875),
    ("CC(=O)N1CCC[C@]12CC=CCCCC1(CCCC=CCCCOC(=O)N3CC[C@@](C(=O)N[C@@H](Cc4ccsc4)C(=O)N[C@@H](Cc4csc5ccccc45)C(=O)N[C@@H](CCC(N)=O)C(=O)NCCCCCCN)(C3)NC(=O)[C@H](CC(N)=O)NC(=O)[C@H](Cc3ccccc3)NC(=O)[C@H](C)NC(=O)[C@H](C)NC(=O)[C@H](CC(=O)O)NC(=O)[C@H](CC(=O)O)NC1=O)NC(=O)[C@H](CC(C)(C)C)NC(=O)[C@H](CC(=O)O)NC2=O (stereo partly shown) [I-882]", 2.028),
    ("CC(=O)N1CCC[C@]12CC=CCCCC1(CCCC=CCCCOC(=O)N3CC[C@@](C(=O)N[C@@H](Cc4ccccc4Cl)C(=O)N[C@@H](Cc4csc5ccccc45)C(=O)N[C@@H](CCC(N)=O)C(N)=O)(C3)NC(=O)[C@H](CC(C)C)NC(=O)[C@H](Cc3ccccc3)NC(=O)[C@H](C)NC(=O)[C@H](C)NC(=O)[C@H](CC(=O)O)NC(=O)[C@H](CC(=O)O)NC1=O)NC(=O)[C@H](CC1CCCCC1)NC(=O)[C@H](CC(=O)O)NC2=O (stereo partly shown) [I-1075]", 1.971),
    ("CC[C@H](C)[C@H](NC(=O)[C@H](CC(=O)O)NC(=O)[C@H](C)NC(C)=O)C(=O)N[C@]1(C)CCN(C)C(=O)OCC=CCCCCC[C@@](C)(C(=O)N[C@@H](Cc2ccccc2)C(=O)N[C@@H](Cc2c[nH]c3ccccc23)C(=O)N[C@@H](Cc2c[nH]cn2)C(N)=O)NC(=O)[C@H](CCC(N)=O)NC(=O)[C@H](Cc2ccccc2)NC(=O)[C@H](C)NC(=O)[C@H](C)NC(=O)[C@H](CC(=O)O)NC(=O)[C@H](CC(=O)O)NC1=O [I-65]", 1.274),
]

====

# maps each entry to its log10(IC50)
# EXPERIMENTAL SYSTEM: full-length beta-Catenin (Uniprot ID P35222) (Homo sapiens, UniProt P35222)
# Construct: 10 nM full-length beta-Catenin (Uniprot ID P35222)
# Sequence (P35222 whole entry): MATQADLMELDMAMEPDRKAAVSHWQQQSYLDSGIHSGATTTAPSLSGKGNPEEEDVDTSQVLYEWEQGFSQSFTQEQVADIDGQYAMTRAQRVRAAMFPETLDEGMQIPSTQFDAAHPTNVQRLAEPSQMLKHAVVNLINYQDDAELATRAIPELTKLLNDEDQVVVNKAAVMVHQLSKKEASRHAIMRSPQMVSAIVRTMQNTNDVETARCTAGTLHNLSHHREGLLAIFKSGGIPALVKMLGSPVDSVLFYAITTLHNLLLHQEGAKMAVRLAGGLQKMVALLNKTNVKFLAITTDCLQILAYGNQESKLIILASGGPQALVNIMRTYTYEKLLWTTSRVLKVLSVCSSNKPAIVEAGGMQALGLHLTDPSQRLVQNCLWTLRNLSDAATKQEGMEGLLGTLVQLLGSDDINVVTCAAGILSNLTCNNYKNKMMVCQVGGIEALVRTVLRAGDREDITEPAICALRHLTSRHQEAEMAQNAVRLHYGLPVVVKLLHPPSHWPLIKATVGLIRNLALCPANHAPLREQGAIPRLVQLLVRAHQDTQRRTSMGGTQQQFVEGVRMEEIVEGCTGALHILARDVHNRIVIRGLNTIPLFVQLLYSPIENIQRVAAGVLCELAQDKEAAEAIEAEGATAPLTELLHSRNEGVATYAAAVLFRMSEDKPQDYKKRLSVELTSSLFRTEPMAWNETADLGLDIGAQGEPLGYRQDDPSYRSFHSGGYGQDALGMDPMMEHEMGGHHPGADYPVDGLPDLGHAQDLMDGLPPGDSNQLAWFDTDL
# MEASUREMENT DESCRIPTION: Fluorescence polarization IC50 (beta-catenin / 5FAM-TCF4 10-53 competition)
# Format: binding
# EXPERIMENTAL CONDITIONS: fluorescence polarization; read-out: beta-Catenin FP IC50
READOUT NAME: log10(IC50) (log10 of the value in nM)

# MOLECULE, log10(IC50)
records = [
    ("CC(=O)N1CCC[C@]12CC=CCCCC1(CCCC=CCCCOC(=O)N3CC[C@@](C(=O)N[C@@H](Cc4ccccc4)C(=O)N[C@@H](Cc4csc5ccccc45)C(=O)N[C@@H](CCC(N)=O)C(N)=O)(C3)NC(=O)[C@H](CC(C)C)NC(=O)[C@H](Cc3ccc(-c4cccnc4)cc3)NC(=O)[C@H](C)NC(=O)[C@H](C)NC(=O)[C@H](CC(=O)O)NC(=O)[C@H](CC(=O)O)NC1=O)NC(=O)[C@H](CC(C)(C)C)NC(=O)[C@H](CC(=O)O)NC2=O (stereo partly drawn)", 2.35),
    ("CC(=O)N1CCC[C@]12CCCCCCC1(CCCCCCCCOC(=O)N3CC[C@@](C(=O)N[C@@H](Cc4ccsc4)C(=O)N[C@@H](Cc4csc5ccccc45)C(=O)N[C@@H](Cc4ccccc4)C(N)=O)(C3)NC(=O)[C@H]([C@@H](C)O)NC(=O)[C@H](Cc3ccccc3)NC(=O)[C@H](C)NC(=O)[C@H](CCCCNC(C)C)NC(=O)[C@H](CN(CC(=O)O)CC(F)(F)F)NC(=O)[C@H](CC(=O)O)NC1=O)NC(=O)[C@H](CC(C)(C)C)NC(=O)[C@H](CC(=O)O)NC2=O (stereo partly drawn)", 1.84),
    ("CC(=O)N1CCC[C@]12CC=CCCCCC1(CCCCC=CCCCOC(=O)N3CC[C@@](C(=O)N[C@@H](Cc4ccccc4C(F)(F)F)C(=O)N[C@@H](Cc4csc5ccccc45)C(=O)N[C@@H](CCC(N)=O)C(N)=O)(C3)NC(=O)[C@H](CC(C)C)NC(=O)[C@H](Cc3ccccc3)NC(=O)[C@H](C)NC(=O)[C@H](C)NC(=O)[C@H](Cc3cccc(C(=O)O)c3)NC(=O)[C@H](CC(=O)O)NC1=O)NC(=O)[C@H](CC(C)(C)C)NC(=O)[C@H](CC(=O)O)NC2=O (stereo partly drawn) [I-2513]", 1.82),
    ("CC(=O)N1CCC[C@]12CC=CCCCC1(CCCC=CCCCOC(=O)N3CC[C@@](C(=O)N[C@@H](Cc4ccsc4)C(=O)N[C@@H](Cc4csc5ccccc45)C(=O)N[C@@H](CCC(N)=O)C(N)=O)(C3)NC(=O)[C@H](CC(N)=O)NC(=O)[C@H](Cc3ccccc3)NC(=O)[C@H](C)NC(=O)[C@H](C)NC(=O)[C@H]([C@@H](C)O)NC(=O)[C@H]([C@@H](C)O)NC1=O)NC(=O)[C@H](CC(C)(C)C)NC(=O)[C@H](CC(=O)O)NC2=O (stereo partly drawn)", 3.86),
    ("CC(=O)N1CCC[C@H]1C(=O)N[C@@H](CC(=O)O)C(=O)N[C@@H](CC(C)(C)C)C(=O)N[C@]1(C)CC=CCCCOC(=O)N2CC[C@@](C(=O)N[C@@H](Cc3ccsc3)C(=O)N[C@@H](Cc3csc4ccccc34)C(=O)N[C@@H](CCC(N)=O)C(N)=O)(C2)NC(=O)[C@H](CC(C)C)NC(=O)[C@H](Cc2ccccc2)NC(=O)[C@H](C)NC(=O)[C@H](C)NC(=O)[C@H](CC(=O)O)NC(=O)[C@H](CC(=O)O)NC1=O", 2.77),
    ("CC(=O)N1CCC[C@]12CC=CCCCC1(CCCC=CCCCOC(=O)N3CC[C@@](C(=O)N[C@@H](Cc4ccccc4C(F)(F)F)C(=O)N[C@@H](Cc4csc5ccccc45)C(=O)N[C@@H](C)C(N)=O)(C3)NC(=O)[C@H](CC(C)C)NC(=O)[C@H](Cc3ccccc3)NC(=O)[C@H](C)NC(=O)[C@H](CO)NC(=O)[C@H](Cc3cccc(C(=O)O)c3)NC(=O)[C@H](CC(=O)O)NC1=O)NC(=O)[C@H](CC(C)(C)C)NC(=O)[C@H](CC(=O)O)NC2=O (stereo partly drawn)", 1.58),
    ("CC(=O)N1CCC[C@]12CC=CCCCC1(CCCC=CCCCCCC[C@@](C)(C(=O)N[C@@H](Cc3ccccc3)C(=O)N[C@@H](Cc3csc4ccccc34)C(=O)N[C@@H](Cc3cn(C)cn3)C(N)=O)NC(=O)[C@H](CC(N)=O)NC(=O)[C@H](Cc3ccccc3)NC(=O)[C@H](C)NC(=O)[C@H](C)NC(=O)[C@H](CCC(=O)O)NC(=O)[C@H](CC(=O)O)NC1=O)NC(=O)[C@H](C)NC(=O)[C@H](CC(=O)O)NC2=O (stereo partly drawn) [I-479]", 1.43),
    ("CC(=O)N1CCC[C@]12CC=CCCCC1(CCCC=CCCCOC(=O)N3CC[C@@](C(=O)N[C@@H](Cc4ccccc4Cl)C(=O)N[C@@H](Cc4csc5ccccc45)C(=O)N[C@@H](CC(N)=O)C(N)=O)(C3)NC(=O)[C@H](CO)NC(=O)[C@H](Cc3ccccc3)NC(=O)[C@H](C)NC(=O)[C@H](C)NC(=O)[C@H](Cc3cccc(C(=O)O)c3)NC(=O)[C@H](CC(=O)O)NC1=O)NC(=O)[C@H](CC(C)(C)C)NC(=O)[C@H](CC(=O)O)NC2=O (stereo partly drawn) [I-2038]", 1.04),
    ("CC(=O)N1CCC[C@]12CCCCCCC1(CCCCCCCOC(=O)N3CC[C@@](C(=O)N[C@@H](Cc4ccsc4)C(=O)N[C@@H](Cc4csc5ccccc45)C(=O)N[C@@H](CCC(N)=O)C(N)=O)(C3)NC(=O)[C@H](CC(N)=O)NC(=O)[C@H](Cc3ccccc3)NC(=O)[C@H](C)NC(=O)[C@H](C)NC(=O)[C@H](CC(=O)O)NC(=O)[C@H](CC(=O)O)NC1=O)NC(=O)[C@H](CC(C)(C)C)NC(=O)[C@H](CC(=O)O)NC2=O (stereo partly drawn)", 1.83),
]
